biological target: Ubiquitin carboxyl-terminal hydrolase 17-like protein 5 (Homo sapiens) (UniProt A8MUK1); assay: inhibitors of human USP17 deubiquitinase (AID 1645855); conditions: purified USP17, Ub-rhodamine cleavage fluorescence, 3 h; at 50 µM; active compounds read high
Sequence (A8MUK1 whole entry, looked up): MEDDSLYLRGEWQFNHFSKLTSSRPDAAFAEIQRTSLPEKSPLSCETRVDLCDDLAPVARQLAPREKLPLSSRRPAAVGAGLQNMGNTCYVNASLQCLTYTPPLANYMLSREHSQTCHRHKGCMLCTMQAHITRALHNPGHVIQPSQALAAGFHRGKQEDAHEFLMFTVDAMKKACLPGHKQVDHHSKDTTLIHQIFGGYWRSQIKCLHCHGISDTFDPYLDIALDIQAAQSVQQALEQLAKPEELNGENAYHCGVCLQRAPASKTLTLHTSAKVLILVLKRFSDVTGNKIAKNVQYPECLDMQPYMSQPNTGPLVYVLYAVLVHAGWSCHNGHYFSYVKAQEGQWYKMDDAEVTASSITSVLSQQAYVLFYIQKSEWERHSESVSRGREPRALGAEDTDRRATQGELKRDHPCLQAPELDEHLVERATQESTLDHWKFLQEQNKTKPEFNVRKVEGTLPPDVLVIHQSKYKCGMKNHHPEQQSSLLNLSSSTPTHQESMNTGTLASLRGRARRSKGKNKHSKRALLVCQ
In all, about 47,000 compounds went through this assay and about 3,100 (6.6%) were called active. The entries come from a sample that favours actives as a whole.
endpoint.label: inhibition (%)
Give bare numbers, in %.

Answered cases to consult:
N#Cc1ccc(-c2csc(COc3ccccc3Cl)n2)cc1	35
NC(=O)c1ccc(NC(=O)Cc2cc(-c3ccc(Cl)cc3)on2)cc1	58.4
Cc1cnc(N2CCC3(CC2)[C@@H]2CN(Cc4cccnc4)C[C@@H]2C(=O)N3C)nc1	-34.9
Cc1ccccc1N1C(=O)COc2ccc3ccccc3c2C1C(=O)NC1CCCC1 (stereo unspecified)	-5.8
COc1ccccc1CC(=O)N1C[C@@H]2C[C@H]1C[C@@H]2NC(=O)c1ccccc1	15.2
Cc1nnc(N2CCN(C(c3ccccc3)c3ccccc3)CC2)[nH]c1=O	-0.696
N#Cc1ccc(Oc2ncnc3ccccc23)cc1	4.86
CC(CCc1ccccc1)NC(=O)COC(=O)c1ccc2[nH]c3c(c2c1)CCCC3 (stereo unspecified)	15.2

I have 6 compounds here; please give me inhibition for each one.
1. Cc1cccc(-c2nc(Nc3ccc(O)cc3)c3ccccc3n2)c1
2. CC(NC(=O)c1csc(C(=O)NC2CC2)n1)c1ccc(F)cc1 (stereo unspecified)
3. O=C(C1CCN(S(=O)(=O)c2ccc(Cl)cc2)CC1)N1CC[C@@]2(O)CCCC[C@H]2C1
4. O=c1[nH]c(-c2ccncc2)nc2c1CCN(Cc1cn[nH]c1-c1ccc(Cl)cc1)C2
5. Cc1ccc(CNC(=O)CCNc2cc(C)nc3nc(-c4cccnc4)nn23)cc1
6. Cc1ccc(Cn2cc(C(=O)O)c(S(=O)(=O)N3CCOCC3)n2)cc1

Ans.
1: 69.2; 2: 7.32; 3: -1.48; 4: -0.0464; 5: 6.35; 6: -22.5

I have 7 compounds here; please give me inhibition for each one.
1. Cc1ccn2c(NCCc3ccccc3)c(-c3ccc(O)cc3)nc2c1
2. O=C(N[C@@H]1C[C@@H](Oc2cccnc2)[C@H](O)[C@H]1N1CCCCC1)c1cnco1
3. Cc1nc(-c2ccc(C)c(S(=O)(=O)NCC(=O)Nc3cccc(Cl)c3)c2)no1
4. Cc1cc(N2CCOCC2)nc2ccc(NC(=O)CCC(=O)N3CCN(c4ccccn4)CC3)cc12
5. Cc1ccc(C)c(N2CCN(C(=O)CCC(=O)Nc3ccc4nc(N5CCN(C)CC5)cc(C)c4c3)CC2)c1
6. c1cncc(-c2nnc3n2C2(CCCCC2)Cc2ccccc2-3)c1
7. O=C(COC(=O)CCc1nc2ccccc2c(=O)[nH]1)Nc1ccc(N2CCOCC2)cc1

Ans.
1. 20.5
2. -6.77
3. -1.55
4. -15.4
5. -11.5
6. -1.82
7. -1.46

Sourced from PubChem BioAssay AID1645855
